- System: NCI-H23
- Procedure Details: Cytotoxicity against Homo sapiens (human) NCI-H23 cells assessed as growth inhibition at 10 uM after 48 hr by coulter counter analysis
- Assay type: functional
- Test Parameters: NCI-H23, 48 h, read-out: GI
Attribute: inhibition of growth at 10 µM

Examples with answers:
[
  {
    "Molecule": "N#CCc1nc2c(c(=O)[nH]1)C(c1ccc(Cl)cc1)C1=C(CCCC1)N2 (centres undefined)",
    "Measured Target": "NCI-H23",
    "Observable": "inhibition of growth at 10 µM",
    "Value Reported": "12.1%"
  },
  {
    "Molecule": "COc1ccc(C2C3=C(CCCC3)Nc3nc(-c4ccc(N(C)C)cc4)[nH]c(=O)c32)cc1OC (centres undefined)",
    "Measured Target": "NCI-H23",
    "Observable": "inhibition of growth at 10 µM",
    "Value Reported": "< 10%"
  },
  {
    "Molecule": "COc1ccc(-c2nc3c(c(=O)[nH]2)C(c2ccc(Cl)cc2)C2=C(CCCC2)N3)cc1OC (centres undefined)",
    "Measured Target": "NCI-H23",
    "Observable": "inhibition of growth at 10 µM",
    "Value Reported": "< 10%"
  },
  {
    "Molecule": "COc1ccc(-c2nc3c(c(=O)[nH]2)C(c2ccc(OC)c(OC)c2)C2=C(CCCC2)N3)cc1OC (centres undefined)",
    "Measured Target": "NCI-H23",
    "Observable": "inhibition of growth at 10 µM",
    "Value Reported": "< 10%"
  },
  {
    "Molecule": "O=c1[nH]c(-c2ccccc2)nc2c1C(c1ccc(Cl)cc1)C1=C(CCCC1)N2 (centres undefined)",
    "Measured Target": "NCI-H23",
    "Observable": "inhibition of growth at 10 µM",
    "Value Reported": "< 10%"
  }
]

Prompt line: Report inhibition of growth at 10 µM under test system NCI-H23 for COc1ccc(C2C3=C(CCCC3)Nc3nn[nH]c(=O)c32)cc1OC (centres undefined) .
Response line: < 10%

Prompt line: Return reported inhibition of growth at 10 µM for target or system NCI-H23, item O=c1[nH]nnc2c1C(c1ccc(Cl)cc1)C1=C(CCCC1)N2 (centres undefined) .
Response line: 10.4%

Prompt line: # lookup: NCI-H23 inhibition of growth at 10 µM, key = Oc1ccc(-c2nc3c4c(ncn3n2)NC2=C(CCCC2)C4c2ccc(Cl)cc2)cc1 (centres undefined)
Response line: 12.9%

Prompt line: Send back NCI-H23 inhibition of growth at 10 µM of COc1ccc(C2C3=C(CCCC3)Nc3nc(-c4ccccc4)[nH]c(=O)c32)cc1OC (centres undefined) only.
Response line: < 10%

###

A collection of molecules and their measured inhibition of growth at 10 µM
- Test system: MDA-MB-435
- Procedure Details: Cytotoxicity against Homo sapiens (human) MDA-MB-435 cells assessed as growth inhibition at 10 uM after 48 hr by coulter counter analysis
- Type: functional
- Test Parameters: MDA-MB-435, 48 h, read-out: GI

[
  {
    "Molecule": "O=c1[nH]c(-c2ccccc2)nc2c1C(c1ccc(Cl)cc1)C1=C(CCCC1)N2 (stereo not given)",
    "inhibition of growth at 10 µM": "< 10%"
  },
  {
    "Molecule": "COc1ccc(C2C3=C(CCCC3)Nc3nc(-c4ccc(N(C)C)cc4)[nH]c(=O)c32)cc1OC (stereo not given)",
    "inhibition of growth at 10 µM": "< 10%"
  },
  {
    "Molecule": "COc1ccc(C2C3=C(CCCC3)Nc3ncn4nc(-c5ccc(O)cc5)nc4c32)cc1OC (stereo not given)",
    "inhibition of growth at 10 µM": "< 10%"
  }
]

Prompt line: Determine from records and report inhibition of growth at 10 µM for COc1ccc(C2C3=C(CCCC3)Nc3nn[nH]c(=O)c32)cc1OC (stereo not given)
Response line: < 10%

Prompt line: State its inhibition of growth at 10 µM for this molecule: COc1ccc(-c2nc3c(c(=O)[nH]2)C(c2ccc(Cl)cc2)C2=C(CCCC2)N3)cc1OC (stereo not given)
Response line: < 10%

Prompt line: Given the molecule COc1ccc(C2C3=C(CCCC3)Nc3nc(CC#N)[nH]c(=O)c32)cc1OC (stereo not given) , write its reported inhibition of growth at 10 µM.
Response line: < 10%

Prompt line: # return recorded inhibition of growth at 10 µM for entry O=c1[nH]nnc2c1C(c1ccc(Cl)cc1)C1=C(CCCC1)N2 (stereo not given)
Response line: < 10%

Prompt line: Specify reported inhibition of growth at 10 µM for the molecule shown: N#CCc1nc2c(c(=O)[nH]1)C(c1ccc(Cl)cc1)C1=C(CCCC1)N2 (stereo not given)
Response line: < 10%

Prompt line: State, in one line, measured inhibition of growth at 10 µM of COc1ccc(-c2nc3c(c(=O)[nH]2)C(c2ccc(OC)c(OC)c2)C2=C(CCCC2)N3)cc1OC (stereo not given)
Response line: < 10%

Prompt line: Return value of inhibition of growth at 10 µM for input COc1ccc(C2C3=C(CCCC3)Nc3nc(-c4ccccc4)[nH]c(=O)c32)cc1OC (stereo not given) , no commentary.
Response line: < 10%

Prompt line: Complete the entry with inhibition of growth at 10 µM for Clc1ccc(C2C3=C(CCCC3)Nc3ncn4nc(-c5ccccc5)nc4c32)cc1 (stereo not given)
Response line: < 10%
